src = patent US8633183B2

Data export: IC50 values recorded with PI3Kalpha (Homo sapiens (Human), UniProt P42336).
Sequence (P42336 whole entry, looked up): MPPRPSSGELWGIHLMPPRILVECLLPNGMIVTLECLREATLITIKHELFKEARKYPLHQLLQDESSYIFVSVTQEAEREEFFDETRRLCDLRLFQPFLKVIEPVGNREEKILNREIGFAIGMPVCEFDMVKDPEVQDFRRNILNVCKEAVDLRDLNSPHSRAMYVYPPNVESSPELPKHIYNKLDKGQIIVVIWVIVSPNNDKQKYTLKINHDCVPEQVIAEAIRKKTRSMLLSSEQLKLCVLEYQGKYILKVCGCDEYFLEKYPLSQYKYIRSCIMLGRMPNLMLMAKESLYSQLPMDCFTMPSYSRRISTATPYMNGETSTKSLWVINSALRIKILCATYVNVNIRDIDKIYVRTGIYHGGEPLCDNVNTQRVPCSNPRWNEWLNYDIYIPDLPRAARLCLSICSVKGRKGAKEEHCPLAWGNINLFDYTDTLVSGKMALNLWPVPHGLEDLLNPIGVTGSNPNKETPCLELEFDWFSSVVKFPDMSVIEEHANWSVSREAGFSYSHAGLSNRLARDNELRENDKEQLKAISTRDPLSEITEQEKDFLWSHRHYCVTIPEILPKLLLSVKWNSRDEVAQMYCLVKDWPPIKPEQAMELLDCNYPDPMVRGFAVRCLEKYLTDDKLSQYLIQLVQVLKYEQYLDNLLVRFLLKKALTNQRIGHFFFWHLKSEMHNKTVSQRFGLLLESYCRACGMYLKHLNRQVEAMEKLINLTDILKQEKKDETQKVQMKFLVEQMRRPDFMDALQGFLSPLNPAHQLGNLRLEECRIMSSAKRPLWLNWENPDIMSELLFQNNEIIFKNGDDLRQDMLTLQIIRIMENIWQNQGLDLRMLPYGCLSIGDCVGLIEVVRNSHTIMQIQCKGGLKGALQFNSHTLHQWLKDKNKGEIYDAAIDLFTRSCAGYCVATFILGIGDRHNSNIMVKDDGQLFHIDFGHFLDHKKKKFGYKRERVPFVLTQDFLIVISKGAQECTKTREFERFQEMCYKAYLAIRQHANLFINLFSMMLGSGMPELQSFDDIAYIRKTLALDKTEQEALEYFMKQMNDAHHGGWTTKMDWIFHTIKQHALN
Numbers only here, please. The scale is nM.

Worked cases, IC50 given:
INSERT INTO measurements (compound, readout_value) VALUES
  ('CCc1ncnc(-c2ccc(C(=O)N3CCC(O)(c4ccccc4)CC3)c(F)c2)c1C#Cc1ccc(N)nc1 [Example D-126]', 142),
  ('CCc1ncnc(-c2ccc(C(=O)N3CCC(N4CCOCC4)CC3)c(C)c2)c1C#Cc1ccc(N)nc1 [Example E-91]', 179),
  ('CCc1ncnc(-c2ccc(C(=O)N3CCC(N4CCCCC4)CC3)c(F)c2)c1C#Cc1ccc(N)nc1 [Example D-70]', 490),
  ('CCOC(=O)N1CCN(C(=O)c2ccc(-c3ncnc(CC)c3C#Cc3ccc(N)nc3)cc2F)CC1 [Example D-116]', 129),
  ('CCc1ncnc(-c2ccc(C(=O)NC3CCCN(C)C3)c(Cl)c2)c1C#Cc1ccc(N)nc1 [Example D-140]', 510);

Lab entry: PI3Kalpha (Homo sapiens (Human), UniProt P42336) assay, compound CCc1ncnc(-c2ccc(C(=O)N3CCN(Cc4ccccc4)CC3)c(F)c2)c1C#Cc1ccc(N)nc1C [Example D-24] , IC50 = 1020

Measured IC50 (PI3Kalpha (Homo sapiens (Human), UniProt P42336)), entry CCNc1ccc(C#Cc2c(CC)ncnc2-c2ccc(C(=O)N3CCn4cnnc4C3)c(F)c2)cn1 [Example E-261] : 44.3
